Target: T1, TMEW1 (TMEFF2-FL-ECD-His-Avitag) (human, UniProt Q9UIK5 41-320)
T1 construct: Human TMEFF2 ECD with C-terminal G3S, 6xHis tag and Avi-tag, all in the entry; also called TMEFF2 ECD
T1 sequence: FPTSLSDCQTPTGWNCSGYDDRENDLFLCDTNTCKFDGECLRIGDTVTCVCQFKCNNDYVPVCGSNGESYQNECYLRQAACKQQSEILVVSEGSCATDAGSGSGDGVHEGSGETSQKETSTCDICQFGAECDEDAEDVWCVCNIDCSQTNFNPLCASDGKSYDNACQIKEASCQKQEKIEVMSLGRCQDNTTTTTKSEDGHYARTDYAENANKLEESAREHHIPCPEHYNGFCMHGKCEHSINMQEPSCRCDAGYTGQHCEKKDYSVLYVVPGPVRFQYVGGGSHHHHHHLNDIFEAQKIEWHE
Experiment: ProteOn SPR, mAb captured on anti-human Fc, TMEFF2 as analyte

binder	kon [M⁻¹ s⁻¹]
TMEB570 (antibody, human IgG4 S228P, kappa, F234A L235A, V domains shown, IgG4 PAA anti-TMEFF2; also called TMEH396/TMEL112) VH: QVQLVQSGAEVKKPGSSVKVSCKASGGTFSSYYISWVRQAPGQGLEWMGGIIPISGRANYAQKFQGRVTITADESTSTAYMELSSLRSEDTAVYYCARDGYSSGRSTTYAFDYWGQGTLVTVSS VL: EIVLTQSPGTLSLSPGERATLSCRASQSVSTYYLAWYQQKPGQAPRLLIYGASYRATGIPDRFSGSGSGTDFTLTISRLEPEDFAVYYCQQYGHSPITFGQGTKVEIKR	464000
TMEB565 (antibody, human IgG4 S228P, kappa, F234A L235A, V domains shown, IgG4 PAA anti-TMEFF2; also called TMEH396/TMEL111) VH: QVQLVQSGAEVKKPGSSVKVSCKASGGTFSSYYISWVRQAPGQGLEWMGGIIPISGRANYAQKFQGRVTITADESTSTAYMELSSLRSEDTAVYYCARDGYSSGRSTTYAFDYWGQGTLVTVSS VL: EIVLTQSPGTLSLSPGERATLSCRASQSVATYYLAWYQQKPGQAPRLLIYGASSRATGIPDRFSGSGSGTDFTLTISRLEPEDFAVYYCQQYGYNPITFGQGTKVEIKR	384000
TMEB675 (antibody, human IgG4 S228P, kappa, F234A L235A, V domains shown, IgG4 PAA anti-TMEFF2; also called TMEH411/TMEL127) VH: EVQLLESGGGLVQRGGSLRPSCAASGFTFSSYSMSWVRQAPGKGLEWVSVISGSGGFTDYADSVKGRFTISRDNSKNTLYLHMNSLRAEDTAVYYCARMPLNSPHDYWGQGTLVTVSS VL: AIQMTQSPSSLSASVGDRVTITCRASQGIRNDLGWYQQKPGKAPKLLIYAASSLQSGVPSRFSGSGSGTDFTLTISSLQPEDFATYYCLQDYNYALTFGGGTKVEIKR	2.65e+06
